Reference source: patent US20200087258A1

The reader will find reported pIC50 values listed item by item below.
- target or system: INDY (Homo sapiens, UniProt Q86YT5)
- Sequence (Q86YT5 whole entry): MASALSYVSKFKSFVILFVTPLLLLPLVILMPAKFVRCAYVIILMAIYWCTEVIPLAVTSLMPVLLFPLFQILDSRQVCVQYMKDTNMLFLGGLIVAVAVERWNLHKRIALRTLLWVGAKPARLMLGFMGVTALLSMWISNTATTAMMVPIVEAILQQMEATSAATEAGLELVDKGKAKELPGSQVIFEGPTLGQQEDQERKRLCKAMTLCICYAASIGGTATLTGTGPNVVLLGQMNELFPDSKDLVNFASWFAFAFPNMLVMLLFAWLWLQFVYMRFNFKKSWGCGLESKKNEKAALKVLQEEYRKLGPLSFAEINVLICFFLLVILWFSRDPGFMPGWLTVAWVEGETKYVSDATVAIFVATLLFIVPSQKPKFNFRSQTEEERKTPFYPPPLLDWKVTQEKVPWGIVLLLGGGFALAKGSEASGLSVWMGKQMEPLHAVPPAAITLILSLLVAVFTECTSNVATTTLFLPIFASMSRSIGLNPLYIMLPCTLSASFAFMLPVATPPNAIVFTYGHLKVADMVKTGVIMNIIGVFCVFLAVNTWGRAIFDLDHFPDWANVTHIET
- protocol notes: 14C-citrate uptake in HEK293 cells overexpressing recombinant human INDY (NaCT)
- Type: cell-based
- Design: expressed in transfected cells; host or cells: HEK293
Conceptually, pIC50 converts a concentration in mol/L into minus its log10.

- compound: "O=C(NCc1ccc(O)cc1)C1CCN(S(=O)(=O)c2cc(Cl)cc(Cl)c2)CC1 [Example 123]"
  quantitative readout: 5.70
- compound: "O=C(NCc1ccc(F)cc1)C1CCN(S(=O)(=O)c2cc(Cl)cc(Cl)c2)CC1 [Example 132]"
  quantitative readout: 5.70
- compound: "CC(C)(C)c1ccc(S(=O)(=O)N2CCC(C(=O)NCc3ccccc3Cl)CC2)cc1 [Example 39]"
  quantitative readout: 6.70
- compound: "N#Cc1ccc(S(=O)(=O)N2CCC(C(=O)NCc3ccccc3F)CC2)cc1 [Example 13]"
  quantitative readout: 4.69

What pIC50 appears in the records for this compound with INDY (Homo sapiens, UniProt Q86YT5)? O=C(NCc1ccccn1)C1CCN(S(=O)(=O)c2cccc(S(F)(F)(F)(F)F)c2)CC1 [Example 85] 5.19
